# system-under-test: Vascular endothelial growth factor receptor 3 (Homo sapiens)
# Sequence (P35916 whole entry): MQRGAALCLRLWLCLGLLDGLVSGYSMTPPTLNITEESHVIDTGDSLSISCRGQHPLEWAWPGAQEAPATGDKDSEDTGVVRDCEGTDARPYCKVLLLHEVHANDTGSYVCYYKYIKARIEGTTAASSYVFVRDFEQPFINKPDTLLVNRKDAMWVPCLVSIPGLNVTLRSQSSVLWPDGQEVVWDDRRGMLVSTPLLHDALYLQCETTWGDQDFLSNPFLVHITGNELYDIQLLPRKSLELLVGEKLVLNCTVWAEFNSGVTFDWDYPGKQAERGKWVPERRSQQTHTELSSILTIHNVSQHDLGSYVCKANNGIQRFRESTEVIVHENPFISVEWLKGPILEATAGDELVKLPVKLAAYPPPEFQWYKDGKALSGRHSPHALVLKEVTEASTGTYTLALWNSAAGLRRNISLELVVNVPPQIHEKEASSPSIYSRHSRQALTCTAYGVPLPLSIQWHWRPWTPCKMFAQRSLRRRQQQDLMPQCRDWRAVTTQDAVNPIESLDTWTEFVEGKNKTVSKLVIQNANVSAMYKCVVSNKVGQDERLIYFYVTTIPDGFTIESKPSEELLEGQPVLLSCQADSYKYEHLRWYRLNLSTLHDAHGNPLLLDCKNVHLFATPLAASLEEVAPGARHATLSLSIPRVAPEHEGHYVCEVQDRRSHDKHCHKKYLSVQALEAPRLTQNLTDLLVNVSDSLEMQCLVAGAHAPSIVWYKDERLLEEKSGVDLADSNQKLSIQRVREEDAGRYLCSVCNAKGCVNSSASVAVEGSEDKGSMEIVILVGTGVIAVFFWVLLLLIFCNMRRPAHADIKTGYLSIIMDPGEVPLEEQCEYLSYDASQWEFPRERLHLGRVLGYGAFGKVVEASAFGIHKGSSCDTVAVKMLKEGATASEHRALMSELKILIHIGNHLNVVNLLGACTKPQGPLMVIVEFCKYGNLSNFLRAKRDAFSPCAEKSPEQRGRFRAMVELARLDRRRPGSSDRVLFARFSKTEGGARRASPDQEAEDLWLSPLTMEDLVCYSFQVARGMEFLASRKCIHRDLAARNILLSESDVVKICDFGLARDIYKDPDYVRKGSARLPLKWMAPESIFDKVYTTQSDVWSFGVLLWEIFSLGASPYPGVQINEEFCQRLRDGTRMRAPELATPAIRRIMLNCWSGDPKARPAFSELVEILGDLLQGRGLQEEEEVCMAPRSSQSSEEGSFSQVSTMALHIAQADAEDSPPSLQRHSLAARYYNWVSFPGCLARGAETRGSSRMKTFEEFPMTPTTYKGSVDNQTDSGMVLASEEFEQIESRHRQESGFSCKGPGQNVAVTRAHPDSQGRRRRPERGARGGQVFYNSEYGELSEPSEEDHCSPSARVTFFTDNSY
pIC50: −log10 of the molar value.
readout: pIC50

Data request: Specify pIC50 for N[C@H](COc1cncc(-c2ccc3cnccc3c2)c1)Cc1c[nH]c2ccccc12 , system Vascular endothelial growth factor receptor 3 (Homo sapiens).
Data returned: < 4.30

---

# system-under-test: Protein kinase C delta type (Homo sapiens)
# Sequence (Q05655 whole entry): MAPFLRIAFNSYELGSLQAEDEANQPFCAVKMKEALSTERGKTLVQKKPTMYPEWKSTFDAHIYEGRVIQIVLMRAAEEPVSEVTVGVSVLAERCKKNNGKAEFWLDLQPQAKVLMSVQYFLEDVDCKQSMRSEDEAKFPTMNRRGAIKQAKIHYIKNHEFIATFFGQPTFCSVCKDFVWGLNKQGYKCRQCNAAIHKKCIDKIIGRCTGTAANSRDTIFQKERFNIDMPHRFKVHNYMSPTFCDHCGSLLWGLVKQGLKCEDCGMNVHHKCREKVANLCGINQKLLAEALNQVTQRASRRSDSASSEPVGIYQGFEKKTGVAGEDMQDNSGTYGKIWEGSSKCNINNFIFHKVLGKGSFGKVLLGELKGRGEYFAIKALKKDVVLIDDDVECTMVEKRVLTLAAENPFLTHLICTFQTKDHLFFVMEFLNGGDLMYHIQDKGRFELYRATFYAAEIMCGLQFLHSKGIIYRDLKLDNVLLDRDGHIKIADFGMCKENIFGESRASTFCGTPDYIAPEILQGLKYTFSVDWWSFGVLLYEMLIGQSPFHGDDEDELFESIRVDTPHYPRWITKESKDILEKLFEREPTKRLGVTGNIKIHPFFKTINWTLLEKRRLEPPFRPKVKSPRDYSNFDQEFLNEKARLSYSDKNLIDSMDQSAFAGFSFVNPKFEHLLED
# assay-details: Inhibition of PKCdelta at 10 uM ATP
readout: IC50 (µM)
The reply should be a number in µM, with the unit left off.

Data request: Please supply the value of reported IC50 for the item N[C@H](COc1cncc(-c2ccc3cnccc3c2)c1)Cc1c[nH]c2ccccc12
Data returned: 6.1
